# Test system: Staphylococcus epidermidis
# Assay Protocol: Antibacterial activity against Staphylococcus epidermidis measured after 18 to 20 hrs by broth microdilution method
# Format: functional
# Condition Set: time 18-20 hrs
Recorded Endpoint: MIC (µM)
Your answer should be a plain number; it is taken to be in µM.

[Q] Output MIC of `CO[C@H]1/C=C/O[C@@]2(C)Oc3c(C)c(O)c4c(O)c(c(/C=N/N5CCN(C)CC5)c(O)c4c3C2=O)NC(=O)/C(C)=C\C=C\[C@H](C)[C@H](O)[C@@H](C)[C@@H](O)[C@@H](C)[C@H](OC(C)=O)[C@@H]1C`
[A] 0.02

* * *

# System: Mycolicibacterium smegmatis
# Assay Protocol: Antibacterial activity against Mycobacterium smegmatis ATCC 70084 by resazurin microplate assay
# Assay type: functional
Square brackets hold non-standard residues; d marks the D form. Peptide text beside a SMILES is read from it. * marks the point of attachment. Pro(4S-Me) = C[C@@H]1CN[C@H](C(=O)O)C1; Decanoyl = CCCCCCCCCC(=O)*; Valol = CC(C)[C@@H](CO)N*; Aib = CC(C)(N)C(=O)O
MIC values, listed per item

Example results:
| Compound | MIC |
| --- | --- |
| O=C(O)c1cn(C2CC2)c2cc(N3CCNCC3)c(F)cc2c1=O [CIPROFLOXACIN] | 3.8 µM |
| CCCCCCCCCC(=O)NC(C)(C)C(=O)N1C[C@@H](C)C[C@H]1C(=O)N[C@@H](Cc1ccccc1)C(=O)NC(C)(C)C(=O)N[C@@H](CCC(N)=O)C(=O)N[C@@H](CCC(N)=O)C(=O)NC(C)(C)C(=O)NC(C)(C)C(=O)N[C@@H](CCC(N)=O)C(=O)N[C@@H](CC(C)C)C(=O)N[C@H](CO)C(C)C (Decanoyl-[Aib][Pro(4S-Me)]F[Aib]QQ[Aib][Aib]QL-Valol) | 80 µM |
| CCCCCCCCCC(=O)NC(C)(C)C(=O)N1CCC[C@H]1C(=O)N[C@@H](Cc1ccccc1)C(=O)NC(C)(C)C(=O)N[C@@H](CCC(N)=O)C(=O)N[C@@H](CCC(N)=O)C(=O)NC(C)(C)C(=O)NC(C)(C)C(=O)N[C@@H](CCC(N)=O)C(=O)N[C@@H](CC(C)C)C(=O)N[C@H](CO)C(C)C (Decanoyl-[Aib]PF[Aib]QQ[Aib][Aib]QL-Valol) | 80 µM |

[Q] Output MIC of `C=C[C@@H]1C[C@H](C)C[C@H](C)[C@H]1c1c(O)ccn(O[C@@H]2C(C(=O)OC)=C[C@@H](O)[C@@H](O)[C@H]2O)c1=O`
[A] > 250 µM

* * *

# Test system: Yersinia pseudotuberculosis
# Assay Protocol: Antibacterial activity against Yersinia pseudotuberculosis measured after 18 to 20 hrs by broth microdilution method
# Assay type: functional
# Condition Set: time 18-20 hrs
MIC values, listed per item
Your answer should be a plain number; it is taken to be in µM.

Example results:
| Smiles Input | MIC (µM) |
| --- | --- |
| O=C(O)c1cn(C2CC2)c2cc(N3CCNCC3)c(F)cc2c1=O | 0.14 |
| CO[C@H]1/C=C/O[C@@]2(C)Oc3c(C)c(O)c4c(O)c(c(/C=N/N5CCN(C)CC5)c(O)c4c3C2=O)NC(=O)/C(C)=C\C=C\[C@H](C)[C@H](O)[C@@H](C)[C@@H](O)[C@@H](C)[C@H](OC(C)=O)[C@@H]1C | 10.7 |

[Q] Give MIC for `C=C[C@@H]1C[C@H](C)C[C@H](C)[C@H]1c1c(O)ccn(O[C@@H]2C(C(=O)OC)=C[C@@H](O)[C@@H](O)[C@H]2O)c1=O` tested on Yersinia pseudotuberculosis.
[A] 128

Values from ChEMBL document CHEMBL5321256
